In this section, each of the molecules is paired with its reported pIC50.
- Tested on: SK-HEP1
- protocol.details: Cytotoxicity against human SK-Hep1 cells by MTT assay
- Type: functional, cell-based
pIC50: −log10 of the molar value.
property.label: pIC50

* CO[C@H]1C=C2[C@@H](CC[C@H](O)C2(C)C)[C@]2(C)CC[C@]3(C)[C@@H]([C@H](C)C/C=C/C(C)(C)OC)CC[C@@]3(C)[C@H]12 | < 4.00
* CO[C@H]1C=C2[C@@H](CC[C@H](OC(C)=O)C2(C)C)[C@]2(C)CC[C@]3(C)[C@@H]([C@H](C)C/C=C/C(C)(C)O)CC[C@@]3(C)[C@H]12 | < 4.00
* C[C@H](C/C=C/C(C)(C)O)[C@H]1CC[C@@]2(C)[C@@H]3C=CC4=C(CC[C@H](O)C4(C)C)[C@]3(C)CC[C@]12C | < 4.00
* C[C@H](C/C=C/C(C)(C)O)[C@H]1CC[C@@]2(C)[C@@H]3[C@@H](O)C=C4[C@@H](CC[C@H](O)C4(C)C)[C@]3(C=O)CC[C@]12C | 4.01

====

Known IC50 of a selection of compounds
- System: SK-HEP1
- protocol.details: Cytotoxicity against human SK-Hep1 cells by MTT assay
- Type: functional, cell-based
property.label: IC50 (µM)

* COC(C)(C)/C=C/C[C@@H](C)[C@H]1CC[C@@]2(C)[C@@H]3[C@@H](O)C=C4[C@@H](CC[C@H](O)C4(C)C)[C@]3(C=O)CC[C@]12C | 91.6
* COc1cc([C@@H]2c3cc4c(cc3[C@@H](O[C@@H]3O[C@@H]5CO[C@@H](C)O[C@H]5[C@H](O)[C@H]3O)[C@H]3COC(=O)[C@H]23)OCO4)cc(OC)c1O [ETOPOSIDE] | 49.6

====

- System: SK-HEP1
- protocol.details: Cytotoxicity against human SK-Hep1 cells by MTT assay
- Format: functional, cell-based
property.label: IC50

• C[C@H](C/C=C/C(C)(C)O)[C@H]1CC[C@@]2(C)[C@@H]3[C@@H](O)C=C4[C@@H](CC[C@H](O)C4(C)C)[C@]3(C)CC[C@]12C = > 100 µM
• CO[C@H]1C=C2[C@@H](CC[C@H](O)C2(C)C)[C@]2(C)CC[C@]3(C)[C@@H]([C@H](C)C/C=C/C(C)(C)O)CC[C@@]3(C)[C@H]12 = > 100 µM
• CC(C)=CC(=O)C[C@@H](C)[C@H]1CC[C@@]2(C)[C@@H]3C(=O)C=C4[C@@H](CCC(=O)C4(C)C)[C@]3(C)CC[C@]12C = > 100 µM
